PROTOCOL_DESCRIPTION: survival rescue of mitochondrial mutant cells in low glucose, primary screen, MELAS cybrids, Rieske KO mouse fibroblasts, CellTiter-Glo (AID 1508586);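 note: z relative to plate mean and SD of compound and empty wells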
ASSAY_CONTEXT: MELAS cybrid survival, CellTiter-Glo 48 h, stronger effect = higher value
Each entry below carries its recorded z-score.
Format: numeric value only, no unit, no commentary.

Study these solved cases before continuing.
COMPOUND | z-score
CCCCC(=O)O[C@H]1CC[C@H]2[C@@H]3CCc4cc(O)ccc4[C@H]3CC[C@]12C | -1.02
COC(=O)C1=C(C)NC(C)=C(C(=O)OCCCN2CCC(c3ccccc3)(c3ccccc3)CC2)C1c1cccc([N+](=O)[O-])c1 (centres undefined) | -1.1
COc1ccc(-c2nc3ccc(C4=NNC(=O)CC4C)cc3[nH]2)cc1 (centres undefined) | 1.76

Endpoint output: z-score of `C[C@@H](NCCCc1cccc(C(F)(F)F)c1)c1cccc2ccccc12` . Value?
-0.442

May I ask what z-score has been recorded for `COc1cc(C)c(C=CC(C)=CC=CC(C)=CC(=O)O)c(C)c1C` ?
-0.108

Quick one: z-score of `C1COC(NC(C2CC2)C2CC2)=N1` ?
0.462

Query: z-score; subject: CC(=O)N(CC(O)CO)c1c(I)c(C(=O)NCC(O)CO)c(I)c(C(=O)NCC(O)CO)c1I (centres undefined)
0.412

Please report the recorded z-score for CN1C(CCl)Nc2cc(Cl)c(S(N)(=O)=O)cc2S1(=O)=O (centres undefined) .
-0.258

What value of z-score has been recorded for this entry: `C[C@@H]1C[C@H]2[C@@H]3C[C@H](F)C4=CC(=O)C=C[C@]4(C)[C@@]3(F)[C@@H](O)C[C@]2(C)[C@@]1(O)C(=O)COC(=O)C(C)(C)C`
0.627

I'd like to know its z-score. The compound in question is `CN(C)CCN(Cc1ccc(Cl)cc1)c1ccccn1`
-0.0317

Bench note: what z-score did `CCCCc1ncc(/C=C(\Cc2cccs2)C(=O)O)n1Cc1ccc(C(=O)O)cc1` show?
0.334

# z-score lookup, item `CCC1=C[C@@H]2CN(C1)Cc1c([nH]c3ccccc13)[C@@](C(=O)OC)(c1cc3c(cc1OC)N(C)[C@H]1[C@@](O)(C(=O)OC)[C@H](OC(C)=O)[C@]4(CC)C=CCN5CC[C@]31[C@@H]54)C2`
-2.16

Consider the compound shown here: `O=c1cc(-c2ccc(O)cc2)oc2cc(O)cc(O)c12` What is its recorded z-score?
-0.412

Any idea what its z-score is? The compound is `O=c1cc(-c2ccccc2)oc2cc(O)c(O)c(O)c12`
-0.448

Which z-score is listed for `CCCCCCC[N+](CC)(CC)CCCCc1ccc(Cl)cc1` ?
-3

Please give the measured z-score for this compound: NS(=O)(=O)c1cc2c(cc1Cl)NC(CC1CCCC1)NS2(=O)=O (centres undefined)
0.486

---

PROTOCOL_DESCRIPTION: viability loss in pontine glioma line – cell-based, SU-DIPG-XXV, MIPE5.0, CellTiter-Glo, qHTS, dose response (AID 1347065);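 note: cells exposed to compound for 48 hours before ATP readout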
ASSAY_CONTEXT: CellTiter-Glo ATP luminescence
Inconclusive results are not listed. The source made the active and inactive calls. Cut-off not given; nearly all actives show AC50 up to about 26 µM.
Hi! Could you answer with just one of these? active, inactive

Below, 5 compounds whose answers are already recorded.
COMPOUND | ANSWER_LABEL
CN(C)c1nc(N(C)C)nc(N(C)C)n1 | inactive
CSCC[C@H](NC(=O)[C@H](Cc1c[nH]c2ccccc12)NC(=O)CCNC(=O)OC(C)(C)C)C(=O)N[C@@H](CC(=O)O)C(=O)N[C@@H](Cc1ccccc1)C(N)=O | inactive
C[C@H]1[C@H](C)CC[C@]2(C(=O)O)CC[C@]3(C)C(=CC[C@@H]4[C@@]5(C)CC[C@H](O)C(C)(C)[C@@H]5CC[C@]43C)[C@H]12 | active
COC(c1ccccc1)(c1ccccc1)[C@H](Oc1nc(C)cc(C)n1)C(=O)O | inactive
c1ccc2c(Cc3c[nH]c4ccccc34)c[nH]c2c1 | inactive

Dear all, I need the recorded test outcome for `CCN[C@H]1C[C@H](C)S(=O)(=O)c2sc(S(N)(=O)=O)cc21` , thank you.
inactive

Tell me the assay call for O=C(NCC1CCCCN1)c1cc(OCC(F)(F)F)ccc1OCC(F)(F)F (centres undefined) please.
inactive

Field: outcome | Entry: `O=C(O)c1c(Cl)c(Cl)c(Cl)c(Cl)c1-c1c2cc(I)c(=O)c(I)c-2oc2c(I)c(O)c(I)cc12`
active

What did the test return for `C=CC(=O)Nc1cc2c(Nc3ccc(F)c(Cl)c3)ncnc2cc1OCCCN1CCOCC1` ?
active

---

PROTOCOL_DESCRIPTION: LFS_MB_P medulloblastoma growth inhibition, cell-based, chromothripsis tumors, cisplatin or BGB combos (AID 1671449);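 note: cells exposed for 96 hours; 0% = vehicle DMSO and 100% = killing by high DMSO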
ASSAY_CONTEXT: LFS_MB_P medulloblastoma cells, measured here: combination with BGB IC20, at 0.005 µM
inhibition values, listed per item
Give the value in % but do not write % after it.

MOLECULE | inhibition / %
O=c1c(O)c(-c2ccc(O)c(O)c2)oc2cc(O)ccc12 | -16.9
COc1c2ccoc2cc2oc(=O)ccc12 | -15
CNC1CCCN(c2c(F)cc3c(=O)c(C(=O)O)cn(C4CC4)c3c2OC)C1 (stereo unspecified) | -28.5
Cc1ccc2nc(N)[nH]c(=O)c2c1Sc1ccncc1 | -4.28
O=c1[nH]c(=O)n([C@H]2C[C@H](O)[C@@H](CO)O2)cc1Br | -4.77

So what does the record say about inhibition for `O=C(CCCCCCC(=O)Nc1ccccc1)NO` ?
-24

Param item = `O=c1cc[nH]c(=O)[nH]1` ; retrieve measured inhibition.
-16.6

Quick check: inhibition of CC1(C(=O)O)CCC2(C)CCC3(C)C(=CC(=O)C4C5(C)CCC(OC(=O)CCC(=O)O)C(C)(C)C5CCC43C)C2C1 (stereo unspecified) ?
-7.44

I would be grateful if you could share the reported inhibition for `N=c1ccn2c(n1)O[C@H]1[C@H](O)[C@@H](CO)O[C@H]12` .
-22.6

What value of inhibition has been recorded for this entry: `O=c1[nH]c(=O)n([C@H]2C[C@H](O)[C@@H](CO)O2)cc1C(F)(F)F`
-2.27

Which inhibition is listed for `Nc1ncn([C@H]2C[C@H](O)[C@@H](CO)O2)c(=O)n1` ?
-1.4

---

PROTOCOL_DESCRIPTION: suppressors of polyglutamine aggregation in yeast, 75Q-TubH (AID 1616)
ASSAY_CONTEXT: S. cerevisiae 75Q-TubH polyglutamine aggregation suppression; stronger effect = higher value
MEASURED_QUANTITY: aggregation suppression score
Note: the reply should be a number with no unit written.

COMPOUND | MEASUREMENT
COc1ccc([C@@H]2CC(=O)c3c(O)cc(O)cc3O2)cc1O | 0.264
CN(C)CCN(Cc1cccs1)c1ccccn1 | 1.19
CCC(C)C(N)C(=O)N1CCCC1C(=O)NC(C(=O)O)C(C)CC (configuration not stated) | 1.44
O=C(O)c1cc([N+](=O)[O-])ccc1NCCCc1ccccc1 | 0.265
CN/C(=C\[N+](=O)[O-])NCCSCc1ccc(CN(C)C)o1 | 1.66
COC(=O)C1=C(C)NC(C)=C(C(=O)OC)C1c1ccccc1[N+](=O)[O-] | 0.369

We next turn to a different compound, shown below.
What value of aggregation suppression score has been recorded for this entry: CN1C2CCC1CC(OC(=O)C(CO)c1ccccc1)C2 (configuration not stated)
1.57

---

TGT: 6-phosphogluconate dehydrogenase, decarboxylating (Homo sapiens)
PROTOCOL_DESCRIPTION: 6PGD enzyme inhibitors, primary screen, biochemical, human, recombinant enzyme, NADPH absorbance (AID 1159550)
ASSAY_CONTEXT: recombinant 6PGD, NADPH absorbance 341 nm; at 10 µM; stronger effect = higher value
The source made the active and inactive calls.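 How the source made its calls: active means at least 20% inhibition of 6-phosphogluconate dehydrogenase activity; inactive means the rest.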
Measured inhibition accompanies every entry in the list below.

Here is how some compounds turned out for inhibition.
COMPOUND | TGT | MEASUREMENT
CCC(=O)NCC[C@@H]1CCc2ccc3c(c21)CCO3 | 6-phosphogluconate dehydrogenase, decarboxylating (Homo sapiens) | 11.8% (inactive)
COc1ccc2ccc(=O)oc2c1CC=C(C)C | 6-phosphogluconate dehydrogenase, decarboxylating (Homo sapiens) | 9.51% (inactive)
NC[C@@H]1OC(O[C@@H]2[C@@H](O)[C@H](O[C@H]3[C@@H](O)[C@H](N)C[C@H](N)[C@H]3O[C@H]3O[C@H](CN)[C@H](O)[C@H](O)[C@H]3N)O[C@@H]2CO)[C@H](N)[C@@H](O)[C@H]1O (stereo not given in full) | 6-phosphogluconate dehydrogenase, decarboxylating (Homo sapiens) | -6.73% (inactive)
O=C(O)/C=C(/CC(=O)O)C(=O)O | 6-phosphogluconate dehydrogenase, decarboxylating (Homo sapiens) | 8.82% (inactive)

Find inhibition (6-phosphogluconate dehydrogenase, decarboxylating (Homo sapiens)) for the entry `COC(=O)[C@H]1[C@H]2C[C@H]3c4[nH]c5cc(OC)ccc5c4CCN3C[C@H]2C[C@@H](OC(=O)c2cc(OC)c(OC)c(OC)c2)[C@@H]1OC`
0.174% (inactive)

Record lookup: for 6-phosphogluconate dehydrogenase, decarboxylating (Homo sapiens), what inhibition belongs to `O=C(O)c1cc2cc(F)ccc2[nH]1` ?
0.201% (inactive)

Enter reported inhibition observed with 6-phosphogluconate dehydrogenase, decarboxylating (Homo sapiens) for CC1=C2C(=COC(C)C2C)C(=O)C(C(=O)O)=C1O (stereo not given)
10.6% (inactive)

# value lookup — system 6-phosphogluconate dehydrogenase, decarboxylating (Homo sapiens), readout inhibition, item `Oc1ccc(O)cc1`
10.8% (inactive)

Param readout = inhibition; param system = 6-phosphogluconate dehydrogenase, decarboxylating (Homo sapiens); param query = CC(=O)OC1CC2C(C)(C)C(=O)CCC2(C)C2CCC3(C)C(c4ccoc4)OC(=O)C4OC43C12C (stereo not given) ; response: value
11.7% (inactive)

Form field - read-out: inhibition; system: 6-phosphogluconate dehydrogenase, decarboxylating (Homo sapiens); submitted item: `O=c1cccc2cc(O)c(O)c(O)c2c1O`
16.8% (inactive)
